TESTED SYSTEM: HLA-A*24:02 molecule (Homo sapiens, UniProt P04439, D101N/D140Y/D185E/E176V/E190D/F33S/G103R/G107R/I119L/I121M/I306V/K335N/L105A/L180Q/L300P/N151K/N90K/Q86E/Q94H/R106L/R138H/R89G/T104I/T345S/V100E/W191G/Y123F)
PROTOCOL TEXT: Binding of peptide to HLA-A*24:02 molecule using C1R-A24 cells
No end group written: not given here.
QUANTITY MEASURED: Kd (µM)
Write the number in µM without appending the unit.

Exam item: Name the recorded Kd of the sequence listed here: TLTAWQHGL [compound 33]
Marked response: 20.1
